Reference source: ChEMBL document CHEMBL4052617

System: Enterococcus faecium
Test: Antibacterial activity against antibiotic-susceptile Enterococcus faecium ATCC 49624 after 18 hrs by brain heart infusion broth microdilution method
Type: functional
Settings: ATCC 49624, 18 h
measured-property: MIC (µg/mL)
Only the number, expressed in µg/mL, is required.

For reference, reported MIC for `C[n+]1c2ccccc2c(Nc2ccc(Cl)cc2)c2oc3ccccc3c21.[I-]` stands at 8

For reference, reported MIC for `C[n+]1c2ccccc2c(Nc2ccc(OC(F)(F)F)cc2)c2[nH]c3ccccc3c21.[I-]` stands at 4

For reference, reported MIC for `Cc1cc(C)cc(Nc2c3ccccc3[n+](C)c3c2oc2ccccc23)c1.[I-]` stands at 8

For reference, reported MIC for `COc1ccccc1Nc1c2ccccc2[n+](C)c2c1oc1ccccc12.[I-]` stands at 8

For reference, reported MIC for `Cc1ccc(Nc2c3ccccc3[n+](C)c3c2[nH]c2ccccc23)cc1C.[I-]` stands at 8

For reference, reported MIC for `Cc1cc(C)cc(Nc2c3ccccc3[n+](C)c3c2[nH]c2ccccc23)c1.[I-]` stands at 8

Continuing:
For reference, reported MIC for `C[n+]1c2ccccc2c(Nc2ccc(F)cc2F)c2oc3ccccc3c21.[I-]` stands at 8

For reference, reported MIC for `Cc1ccc(Nc2c3ccccc3[n+](C)c3c2[nH]c2ccccc23)cc1F.[I-]` stands at 8

For reference, reported MIC for `C[n+]1c2ccccc2c(Nc2ccc(OC(F)(F)F)cc2)c2oc3ccccc3c21.[I-]` stands at 6

For reference, reported MIC for `C[n+]1c2ccccc2c(Nc2ccc(F)cc2F)c2[nH]c3ccccc3c21.[I-]` stands at 8

For reference, reported MIC for `Cc1ccc(Nc2c3ccccc3[n+](C)c3c2[nH]c2ccccc23)cc1.[I-]` stands at 6

* * *

Parameter: log10 MIC. Scope: all listed entries.
System: Bacillus subtilis
Assay: Antibacterial activity against Bacillus subtilis 168 after 18 hrs by Mueller-Hinton broth microdilution method
Assay type: functional
Conditions: subsp. subtilis str. 168, 18 h
All values: base-10 log of MIC in µg/mL.

# count of solved cases: 8
For reference, reported log10 MIC for COc1ccc2cc3[n+](cc2c1OC)CCc1cc2c(cc1-3)OCO2.[Cl-] [BERBERINE CHLORIDE] stands at 2.11

For reference, reported log10 MIC for `CCOc1ccc(Nc2c3ccccc3[n+](C)c3c2[nH]c2ccccc23)cc1.[I-]` stands at 0.30

For reference, reported log10 MIC for `COc1ccc(Nc2c3ccccc3[n+](C)c3c2oc2ccccc23)cc1.[I-]` stands at 0.60

For reference, reported log10 MIC for `Cc1cc(F)ccc1Nc1c2ccccc2[n+](C)c2c1oc1ccccc12.[I-]` stands at 0.78

For reference, reported log10 MIC for `C[n+]1c2ccccc2c(Nc2ccc(F)cc2F)c2[nH]c3ccccc3c21.[I-]` stands at 0.60

For reference, reported log10 MIC for `C[n+]1c2ccccc2c(Nc2ccc(OC(F)(F)F)cc2)c2oc3ccccc3c21.[I-]` stands at 0.60

For reference, reported log10 MIC for `COc1ccccc1Nc1c2ccccc2[n+](C)c2c1oc1ccccc12.[I-]` stands at 0.78

For reference, reported log10 MIC for `Cc1ccc(Nc2c3ccccc3[n+](C)c3c2oc2ccccc23)cc1F.[I-]` stands at 0.78

Continuing:
For reference, reported log10 MIC for `COc1ccc(Nc2c3ccccc3[n+](C)c3c2[nH]c2ccccc23)cc1.[I-]` stands at 0.30

For reference, reported log10 MIC for `C[n+]1c2ccccc2c(Nc2ccc(Cl)cc2)c2[nH]c3ccccc3c21.[I-]` stands at 0.60

For reference, reported log10 MIC for `C[n+]1c2ccccc2c(Nc2ccc(OC(F)(F)F)cc2)c2[nH]c3ccccc3c21.[I-]` stands at 0.30

For reference, reported log10 MIC for `Cc1ccc(Nc2c3ccccc3[n+](C)c3c2oc2ccccc23)cc1.[I-]` stands at 0.78

For reference, reported log10 MIC for `C[n+]1c2ccccc2c(Nc2cccc(F)c2)c2[nH]c3ccccc3c21.[I-]` stands at 0.78
